Taken from paper PMC8065691.

Assay: Cytotoxicity study using MTT assay, MG-63
Assay type: cell-based
Conditions: human, MG-63 osteoblast-like cells, MG-63, inhibitor concentration 50 µM, extract, mean, read-out: Cell Viability (%) MG-63 M
measured.quantity: viability at 24 h, 50 µM (stock) (%)
# output: bare number, implied unit %

-- ask What value of measured viability at 24 h, 50 µM (stock) is listed for C=C(C)C(=O)Nc1ccc(Oc2ccc(NC(=O)C(=C)C)cc2)cc1 [Compound C] ?
-- reply 65.8

-- ask What value of measured viability at 24 h, 50 µM (stock) is listed for C=C(C)C(=O)Oc1ccc(-c2ccc(C#N)cc2)cc1 [Compound A] ?
-- reply 73.6

-- ask What value of measured viability at 24 h, 50 µM (stock) is listed for C=C(C)C(=O)OCCCCCOc1ccc(-c2ccc(C#N)cc2)cc1 [Compound B] ?
-- reply 70.3

* * *

Experiment: Cytotoxicity study using MTT assay, NIH/3T3
Type: cell-based, mouse
Conditions: mouse, NIH/3T3 fibroblast cells; NIH/3T3, inhibitor concentration 100 µM, extract, 24 h, MTT, mean; read-out: Cell Viability (%) NIH/3T3 M
Hi there, I'd appreciate the recorded viability at 24 h, 100 µM (stock) for every entry that follows.
Provide the measurement as a number trailed by its unit.

-- ask What value of measured viability at 24 h, 100 µM (stock) is listed for C=C(C)C(=O)Oc1ccc(-c2ccc(C#N)cc2)cc1 [Compound A] ?
-- reply 45.5%

-- ask What value of measured viability at 24 h, 100 µM (stock) is listed for C=C(C)C(=O)OCCCCCOc1ccc(-c2ccc(C#N)cc2)cc1 [Compound B] ?
-- reply 40.5%

-- ask What value of measured viability at 24 h, 100 µM (stock) is listed for C=C(C)C(=O)Nc1ccc(Oc2ccc(NC(=O)C(=C)C)cc2)cc1 [Compound C] ?
-- reply 42.4%

* * *

Hi there, I'd appreciate the recorded viability at 24 h, 100 µM (stock) for every entry that follows.
Experiment: Cytotoxicity study using MTT assay, MG-63
Assay type: cell-based
Conditions: human, MG-63 osteoblast-like cells, MG-63, inhibitor concentration 100 µM, extract, mean, read-out: Cell Viability (%) MG-63 M
# output: bare number, implied unit %

-- ask What value of measured viability at 24 h, 100 µM (stock) is listed for `C=C(C)C(=O)Nc1ccc(Oc2ccc(NC(=O)C(=C)C)cc2)cc1` ?
-- reply 69.2

-- ask What value of measured viability at 24 h, 100 µM (stock) is listed for `C=C(C)C(=O)Oc1ccc(-c2ccc(C#N)cc2)cc1` ?
-- reply 73

-- ask What value of measured viability at 24 h, 100 µM (stock) is listed for `C=C(C)C(=O)OCCCCCOc1ccc(-c2ccc(C#N)cc2)cc1` ?
-- reply 65.9

* * *

Hi there, I'd appreciate the recorded viability at 24 h, 20 µM (stock) for every entry that follows.
Assay: Cytotoxicity study using MTT assay, MG-63
Type: cell-based
Conditions: human, MG-63 osteoblast-like cells, MG-63, inhibitor concentration 20 μM, extract, mean, read-out: Cell Viability (%) MG-63 M
Provide the measurement as a number trailed by its unit.

-- ask What value of measured viability at 24 h, 20 µM (stock) is listed for C=C(C)C(=O)OCCCCCOc1ccc(-c2ccc(C#N)cc2)cc1 [Compound B] ?
-- reply 78.1%

-- ask What value of measured viability at 24 h, 20 µM (stock) is listed for C=C(C)C(=O)Oc1ccc(-c2ccc(C#N)cc2)cc1 [Compound A] ?
-- reply 82.6%

-- ask What value of measured viability at 24 h, 20 µM (stock) is listed for C=C(C)C(=O)Nc1ccc(Oc2ccc(NC(=O)C(=C)C)cc2)cc1 [Compound C] ?
-- reply 85%
